Molecular target: T1, CD25 (Homo sapiens (Human), UniProt P01589 22-240)
T1 construct: also called IL-2R alpha chain
T1 sequence: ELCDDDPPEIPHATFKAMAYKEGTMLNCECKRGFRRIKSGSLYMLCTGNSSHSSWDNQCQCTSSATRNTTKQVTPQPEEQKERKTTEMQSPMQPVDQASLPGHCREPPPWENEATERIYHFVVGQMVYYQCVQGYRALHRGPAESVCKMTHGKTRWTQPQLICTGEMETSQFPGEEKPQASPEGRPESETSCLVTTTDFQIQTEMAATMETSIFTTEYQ
Test: ELISA, plate-bound CD25
Method: An immunosorbent plate was coated with CD25 at a concentration of 0.5 μg/mL in PBS pH 7.4, 75 ul/well, and incubated overnight at 4° C. Wells were washed with PBS pH 7.4 containing 0.05% Tween-20 (wash buffer) three times, and then blocked with 200 ul/well 1% BSA in PBS pH 7.4 (block buffer) for two hours at room temperature. […] OD 450 nm was measured. […]
pEC50: −log10 of the molar value.
Measure Name: pEC50

Name the reported pEC50 value associated with the binder IL-2M SEQ ID NO: 53 (Fc fusion, also called IL-2 L53I N88D V69A, Q74P, C125S-G4Sx4-Fc) APTSSSTKKTQLQLEHLLLDLQMILNGINNYKNPKLTRMLTFKFYMPKKATEIKHLQCLEEELKPLEEALNLAPSKNFHLRPRDLISDINVIVLELKGSETTFMCEYADETATIVEFLNRWITFSQSIISTLTGGGGSGGGGSGGGGSGGGGSDKTHTCPPCPAPEAAGAPSVFLFPPKPKDTLMISRTPEVTCVVVDVSHEDPEVKFNWYVDGVEVHNAKTKPREEQYNSTYRVVSVLTVLHQDWLNGKEYKCKVSNKALPAPIEKTISKAKGQPREPQVYTLPPSREEMTKNQVSLTCLVKGFYPSDIAVEWESNGQPENNYKTTPPVLDSDGSFFLYSKLTVDKSRWQQGNVFSCSVMHEALHNHYTQKSLSLSPG
> 9.00
